# Measurement Target: pooled human IgG
Reported Enzyme Activity Endpoint Assay: Fab′2 by item:
Endpoint Name: Enzyme Activity Endpoint Assay: Fab′2

>  <Protein>
PRT-29 (protein) MANQEIRYSEVTPYHVTSVWTKGVTPPANFTQGEDVFHAPYVANQGWYDITKTFNGKDDLLCGAATAGNMLHWWFDQNKDQIKRYLEEHPEKQKINFNGEQMFDVKEAIDTKNHQLDSKLFEYFKEKAFPYLSTKHLGVFPDHVIDMFINGYRLSLTNHGPTPVKEGSKDPRGGIFDAVFTRGDQSKLLTSRHDFKEKNLKEISDLIKQELTEGKALGLSHTYANVRINHVINLWGADFDSNGNLEAIYVTDSDSNASIGMKKYFVGVNSAGKVAISAKEIEEDNIGAQVLGLFTLSTGQDSWNQTN

>  <Observed Measurement>
19 ng/µL

$$$$
>  <Protein>
PRT-1 (protein) MANQEIRYSEVTPYHVTSVWTKGVTPPANFTQGEDVFHAPYVANQGWYDITKTFNGKDDLLCGAATAGNMLHWWFDQNKDQIKRYLEEHPEKQKINFNGEQMFDVKEAIDTKNHQLDSKLFEYFKEKAFPYLSTKHLGVFPDHVIDMFINGYRLSLTNHGPTPVKEGSKDPRGGIFDAVFTRGDQSKLLTSRHDFKEKNLKEISDLIKKELTEGKALGLSHTYANVRINHVINLWGADFDSNGNLKAIYVTDSDSNASIGMKKYFVGVNSAGKVAISAKEIKEDNIGAQVLGLFTLSTGQDSWNQTN

>  <Observed Measurement>
44 ng/µL

$$$$
